Value source: ChEMBL document CHEMBL2169741

System Tested: Pancreatic lipase-related protein 2 (Homo sapiens)
Measurement Protocol: Inhibition of recombinant HPLRP2 expressed in Pichia pastoris after 30 mins in presence of NaTDC
XI50: recorded values
Please reply with the bare figure in molar excess and do not write the unit itself.

Consider the worked cases shown below.
CCCCCCCCCCC[C@@H](C[C@@H]1OC(=O)[C@H]1CCCCCC)OC(=O)[C@H](CC(C)C)NC=O    0.77
COc1nn(-c2ccc(Oc3ccccc3)cc2)c(=O)o1    1.04
COc1nn(-c2cccc(Oc3ccccc3)c2)c(=O)o1    0.62

Log: Pancreatic lipase-related protein 2 (Homo sapiens), molecule COc1nn(-c2ccccc2)c(=O)o1 , XI50 = 2.27

* * *

System Tested: Bile salt-activated lipase (Homo sapiens) (UniProt P19835)
Sequence (whole entry): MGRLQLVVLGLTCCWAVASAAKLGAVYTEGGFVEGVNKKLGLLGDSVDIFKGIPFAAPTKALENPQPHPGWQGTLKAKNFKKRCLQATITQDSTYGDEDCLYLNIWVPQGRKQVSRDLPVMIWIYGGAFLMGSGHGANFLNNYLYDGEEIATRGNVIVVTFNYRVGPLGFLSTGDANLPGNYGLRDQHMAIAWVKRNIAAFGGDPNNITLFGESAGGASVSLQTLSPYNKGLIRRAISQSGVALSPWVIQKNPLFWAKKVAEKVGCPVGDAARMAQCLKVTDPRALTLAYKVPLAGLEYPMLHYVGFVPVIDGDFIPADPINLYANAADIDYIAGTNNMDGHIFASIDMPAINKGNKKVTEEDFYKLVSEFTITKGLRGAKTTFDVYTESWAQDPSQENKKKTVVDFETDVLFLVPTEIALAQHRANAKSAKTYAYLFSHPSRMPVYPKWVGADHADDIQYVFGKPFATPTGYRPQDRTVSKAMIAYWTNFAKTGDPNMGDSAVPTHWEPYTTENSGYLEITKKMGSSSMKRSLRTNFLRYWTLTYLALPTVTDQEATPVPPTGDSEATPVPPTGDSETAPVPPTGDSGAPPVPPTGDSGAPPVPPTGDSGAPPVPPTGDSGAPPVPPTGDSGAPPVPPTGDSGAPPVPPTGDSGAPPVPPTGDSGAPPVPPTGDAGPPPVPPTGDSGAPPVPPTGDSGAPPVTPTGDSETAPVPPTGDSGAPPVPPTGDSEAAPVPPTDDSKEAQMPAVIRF
Measurement Protocol: Inhibition of human pancreatic CEH after 30 mins
Recorded XI50 for the following compounds
State just the number; it will be interpreted in molar excess.

COc1nn(-c2ccc(Oc3ccccc3)cc2)c(=O)o1    0.93
COc1nn(-c2cccc(Oc3ccccc3)c2)c(=O)o1    1.48
CCCCCCCCCCC[C@@H](C[C@@H]1OC(=O)[C@H]1CCCCCC)OC(=O)[C@H](CC(C)C)NC=O    0.78

Consider COc1nn(-c2ccccc2)c(=O)o1 . Its measured XI50 is 0.77

* * *

Entries and their inhibition
System Tested: Gastric triacylglycerol lipase (Canis lupus familiaris) (UniProt P80035)
Sequence (P80035 whole entry): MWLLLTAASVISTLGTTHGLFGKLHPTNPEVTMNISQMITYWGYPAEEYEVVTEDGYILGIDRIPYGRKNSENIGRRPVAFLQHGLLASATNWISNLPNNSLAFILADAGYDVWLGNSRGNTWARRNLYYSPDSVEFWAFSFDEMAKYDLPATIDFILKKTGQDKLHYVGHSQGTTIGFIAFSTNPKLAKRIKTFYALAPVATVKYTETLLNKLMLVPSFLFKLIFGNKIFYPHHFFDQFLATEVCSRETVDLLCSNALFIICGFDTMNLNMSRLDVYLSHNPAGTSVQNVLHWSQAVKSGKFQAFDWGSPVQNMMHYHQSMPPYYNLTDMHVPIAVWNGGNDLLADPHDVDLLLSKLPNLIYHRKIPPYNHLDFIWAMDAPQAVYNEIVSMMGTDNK
Measurement Protocol: Inhibition of recombinant DGL expressed in transgenic maize at 2 molar excess after 30 mins in presence of NaTDC
Please reply with the bare figure in % and do not write the unit itself.

Consider the reported inhibition for these compounds:
COc1nn(-c2ccccc2)c(=O)o1    1.4
COc1nn(-c2cccc(Oc3ccccc3)c2)c(=O)o1    10.9
CCCCCCCCCCC[C@@H](C[C@@H]1OC(=O)[C@H]1CCCCCC)OC(=O)[C@H](CC(C)C)NC=O    51.5

Now, please, on to the next compound.
// sample COc1nn(-c2ccc(Oc3ccccc3)cc2)c(=O)o1 , its inhibition was 12.4
